- measured-on: ATX (human His-tagged) (Homo sapiens (Human), UniProt Q13822)
- assay-text: Human ATX enzyme inhibition assay (fluorescence quenching, MR121 substrate)
- Format: biochemical
- experimental-parameters: 30 nM ATX, MR121 substrate, 30° C., pH 8.0; read-out: ATX IC50
pIC50: −log10 of the molar value.
parameter-measured: pIC50

Solved entries (count: 3):
chemical-smiles: Cn1c(=O)[nH]c2ccc(C(=O)N3CC4=C(CN(C(=O)c5cc(OCC6CCOCC6)nc(C6CC6)c5)C4)C3)cc21
parameter-measured: pIC50
assay-value: 8.10

chemical-smiles: O=C(c1cc(OCC2CCOCC2)nc(C2CC2)c1)N1CC2=C(C1)CN(C(=O)c1ccc3[nH]nnc3c1)C2
parameter-measured: pIC50
assay-value: 8.30

chemical-smiles: Cc1nnn(Cc2cc(C(F)(F)F)ccc2CCC(=O)N2CC3=C(C2)CN(C(=O)c2ccc4[nH]nnc4c2)C3)n1
parameter-measured: pIC50
assay-value: 7.96

a: O=C(c1cc(OCC2CCOCC2)nc(C2CC2)c1)N1CC2=C(C1)CN(C(=O)N1CCc3c(n[nH]c3O)C1)C2
b: O=C(c1cc(OCC2CCOCC2)nc(C2CC2)c1)N1CC2=C(CN(Cc3ccc4[nH]c(=O)oc4c3)C2)C1
c: CC(C)(C)C(=O)Nc1cc(C(F)(F)F)cnc1COC(=O)N1CC2=C(C1)CN(C(=O)[C@@H]1CCc3[nH]nnc3C1)C2
d: O=C(OCc1ccc(OC(F)(F)F)cc1)N1CC2=C(C1)CN(C(=O)c1ccc3[nH]nnc3c1)C2
INPUT: Order the records, beginning with the lowest pIC50 and ending with the highest. A complete answer lists every label in the requested sequence.
OUTPUT: a, c, d, b
